Target: T1, BsoBI D246Y (UniProt P70985 P70985:1-323, D246Y)
T1 sequence: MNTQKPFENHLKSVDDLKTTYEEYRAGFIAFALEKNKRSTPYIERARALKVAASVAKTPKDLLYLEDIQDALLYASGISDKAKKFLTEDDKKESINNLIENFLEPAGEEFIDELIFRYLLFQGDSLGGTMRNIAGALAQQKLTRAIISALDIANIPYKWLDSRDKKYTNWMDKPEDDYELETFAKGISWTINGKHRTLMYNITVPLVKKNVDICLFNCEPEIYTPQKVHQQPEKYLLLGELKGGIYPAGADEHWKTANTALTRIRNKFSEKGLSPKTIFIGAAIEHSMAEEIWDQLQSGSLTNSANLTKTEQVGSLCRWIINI
Assay: filter; 4 mM CaCl2; ±67
Conditions: chain copies: 2 inferred; label: 33P 5' end
endpoint-name: Kd (nM)
Answer format: numeric, nM implied, no suffix.

N (CATAAC, non-specific) (dsDNA) DNA 1: GAGTGTTATGGGTAGCATAACTGAAGTGGGAATATC DNA 2: GATATTCCCACTTCAGTTATGCTACCCATAACACTC yielded Kd of 0.449

// provenance: patent US20050003420
